Data credit: patent US5843339A

Experiment: Dispersion properties: visual transparency of press-molded sheet
Format: physicochemical
Design: key: .circleincircle.: Good; .largecircle.: Slightly good; Δ: Slightly opaque; X: Opaque
Conditions: pellets press-molded at 250° C., sheet of 1 mm thickness
result-type: Dispersion properties (transparency of sheet, visually evaluated)

CC(C)(C)c1ccc(OP(Oc2ccc(C(C)(C)C)cc2C(C)(C)C)Oc2ccc(C(C)(C)C)cc2C(C)(C)C)c(C(C)(C)C)c1 :: X
Cc1cc2c(c(C(C)(C)C)c1)OP(OCCOC(=O)CCc1cc(C)c(O)c(C(C)(C)C)c1)Oc1c(cc(C)cc1C(C)(C)C)C2 :: .largecircle.
Cc1cc(Cc2cc(C)cc(C(C)(C)C)c2OP2Oc3c(cc(C)cc3C(C)(C)C)Cc3cc(C)cc(C(C)(C)C)c3O2)c(O)c(C(C)(C)C)c1 :: .largecircle.
Cc1cc(CCC(=O)OCCOp2oc3c(C(C)(C)C)cc(C(C)(C)C)cc3c3cc(C(C)(C)C)cc(C(C)(C)C)c3o2)cc(C(C)(C)C)c1O :: .circleincircle.

---

# Processing stability (gel build-up time) per record follows
Assay: Heat stability test of linear low-density polyethylene: processing stability (gel build-up time on kneading)
Conditions: 0.1 parts test compound per 100 parts LLDPE + 0.1 parts hydrotalcite; pellets extruded at 250° C., kneaded under nitrogen at 240° C., 100 rpm, laboplasto mill; time to maximum torque
Answer format: numeric, min implied, no suffix.

Cc1cc2c(c(C(C)(C)C)c1)OP(OCCOC(=O)CCc1cc(C)c(O)c(C(C)(C)C)c1)Oc1c(cc(C)cc1C(C)(C)C)C2 :: 16
CC(C)(C)c1ccc(OP(Oc2ccc(C(C)(C)C)cc2C(C)(C)C)Oc2ccc(C(C)(C)C)cc2C(C)(C)C)c(C(C)(C)C)c1 :: 7
Cc1cc(Cc2cc(C)cc(C(C)(C)C)c2OP2Oc3c(cc(C)cc3C(C)(C)C)Cc3cc(C)cc(C(C)(C)C)c3O2)c(O)c(C(C)(C)C)c1 :: 15

Provide one value: measured Processing stability (gel build-up time) of Cc1cc(CCC(=O)OCCOp2oc3c(C(C)(C)C)cc(C(C)(C)C)cc3c3cc(C(C)(C)C)cc(C(C)(C)C)c3o2)cc(C(C)(C)C)c1O
21

---

Hydrolysis resistance (gel build-up time after treatment of the test compound) values for the compounds below.
Test: Hydrolysis resistance: same gel build-up test with test compound stored in a thermo-hygrostat
Format: physicochemical
Conditions: test compound allowed to stand in thermo-hygrostat (40° C., 80%) for 7 days, then same test as processing stability
Could you give me the number in min? Just the number is fine.

CC(C)(C)c1ccc(OP(Oc2ccc(C(C)(C)C)cc2C(C)(C)C)Oc2ccc(C(C)(C)C)cc2C(C)(C)C)c(C(C)(C)C)c1 :: 4
Cc1cc2c(c(C(C)(C)C)c1)OP(OCCOC(=O)CCc1cc(C)c(O)c(C(C)(C)C)c1)Oc1c(cc(C)cc1C(C)(C)C)C2 :: 16
Cc1cc(Cc2cc(C)cc(C(C)(C)C)c2OP2Oc3c(cc(C)cc3C(C)(C)C)Cc3cc(C)cc(C(C)(C)C)c3O2)c(O)c(C(C)(C)C)c1 :: 15

Please report the measured Hydrolysis resistance (gel build-up time after treatment of the test compound) for Cc1cc(CCC(=O)OCCOp2oc3c(C(C)(C)C)cc(C(C)(C)C)cc3c3cc(C(C)(C)C)cc(C(C)(C)C)c3o2)cc(C(C)(C)C)c1O
21
